# TARGET_DESC: recombinant GST-FXR fusion protein (Homo sapiens)
# Sequence (Q96RI1 whole entry, the tested form may be a part): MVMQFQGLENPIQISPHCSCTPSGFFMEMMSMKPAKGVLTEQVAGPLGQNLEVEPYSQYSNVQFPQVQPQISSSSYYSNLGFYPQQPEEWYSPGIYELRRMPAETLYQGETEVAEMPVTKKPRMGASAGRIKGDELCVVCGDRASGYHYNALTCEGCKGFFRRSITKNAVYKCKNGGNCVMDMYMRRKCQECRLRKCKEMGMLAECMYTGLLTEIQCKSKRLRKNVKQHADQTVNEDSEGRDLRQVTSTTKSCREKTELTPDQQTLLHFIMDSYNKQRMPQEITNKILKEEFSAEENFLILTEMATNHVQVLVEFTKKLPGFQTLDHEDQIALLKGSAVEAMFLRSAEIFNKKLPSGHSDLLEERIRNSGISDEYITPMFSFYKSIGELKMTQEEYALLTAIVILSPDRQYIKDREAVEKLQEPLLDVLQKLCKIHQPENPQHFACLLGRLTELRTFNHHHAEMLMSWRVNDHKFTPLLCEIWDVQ
# EXPERIMENT_SUMMARY: FXR activity at the molecular level (AlphaScreen)
hey, just use satisfied if measured EC50 is less than 50 nM, otherwise not satisfied

Bench note: check whether O=c1[nH]c(-c2ccc(N3C4CCC3CC(OCc3c(-c5ccccc5OC(F)F)noc3C3CC3)C4)cc2F)no1 (stereo not shown) shows EC50 below 50 nM
satisfied

Please let me know if O=c1[nH]c(-c2ccc(N3CCC(OCc4c(-c5ccccc5OC(F)(F)F)noc4C4CC4)CC3)cn2)no1 shows EC50 below 50 nM.
satisfied

Please check: EC50 for O=c1[nH]c(-c2ccc(N3C4CCC3CC(OCc3c(-c5c(F)cccc5F)noc3C3CC3)C4)nc2)no1 (stereo not shown) , strictly under 50 nM or not?
satisfied

Lab note: confirm whether the reported EC50 for this compound is below 50 nM, equality not counting. compound: O=c1[nH]c(-c2ccc(N3CCC(OCc4c(-c5c(Cl)cccc5Cl)noc4C4CC4)C3)cc2)no1 (stereo not shown)
not satisfied

For this compound, is EC50 lower than 50 nM? O=c1[nH]c(-c2ccc(N3CCC(OCc4c(-c5c(Cl)cccc5Cl)noc4C4CC4)CC3)cc2F)no1
not satisfied

Quick check: does O=c1[nH]c(-c2c(F)cc(N3CCC(OCc4c(-c5ccccc5OC(F)(F)F)noc4C4CC4)CC3)cc2F)no1 have EC50 under 50 nM?
not satisfied

Threshold test, EC50 < 50 nM: O=c1[nH]c(-c2cccc(N3CCC(OCc4c(-c5c(Cl)cccc5Cl)noc4C4CC4)CC3)c2)no1
not satisfied

Here's an entry: O=c1[nH]c(-c2c(F)cc(N3CCC(OCc4c(-c5c(Cl)cccc5Cl)noc4C4CC4)CC3)cc2F)no1 . Is its EC50 below 50 nM?
not satisfied

Does the reported EC50 of O=c1[nH]c(-c2ccc(N3C4CCC3CC(OCc3c(-c5ccccc5C(F)(F)F)noc3C3CC3)C4)nc2)no1 (stereo not shown) stay below 50 nM?
satisfied

Does this compound meet the criterion EC50 < 50 nM? O=c1[nH]c(-c2ccc(N3CCC(OCc4c(-c5c(Cl)cccc5Cl)noc4C4CC4)CC3)cn2)no1
not satisfied

Say whether its EC50 is strictly beneath 50 nM. Entry: O=c1[nH]c(-c2c(F)cc(N3CCC(OCc4c(-c5ccccc5C(F)(F)F)noc4C4CC4)CC3)cc2F)no1
not satisfied

Problem: For the compound O=c1[nH]c(-c2ccc(N3C4CCC3CC(OCc3c(-c5c(Cl)cccc5Cl)noc3C3CC3)C4)cc2F)no1 (stereo not shown) , is EC50 under 50 nM?
satisfied

Lab note: confirm whether the reported EC50 for this compound is below 50 nM, equality not counting. compound: O=c1[nH]c(-c2ccc(N3C4CCC3CC(OCc3c(-c5ccccc5OC(F)F)noc3C3CC3)C4)nc2)no1 (stereo not shown)
satisfied

Identify whether the compound O=c1[nH]c(-c2ccc(N3CCC(OCc4c(-c5ccccc5OC(F)(F)F)noc4C4CC4)CC3)c(F)c2)no1 records EC50 below 50 nM.
not satisfied

Does CC(C)c1onc(-c2c(Cl)cccc2Cl)c1COC1CCN(c2ccc(-c3noc(=O)[nH]3)cc2)CC1 have EC50 strictly under 50 nM?
not satisfied
